system_tested: Androgen receptor (Homo sapiens)
test: Receptor Binding Assay (Ki) and Transactivation Assay (EC50)
assay_setup: pH 7.6; 22 °C
pEC50: −log10 of the molar value.

compound	pEC50
Cc1c(/N=C2\O[C@H](C(C)C)[C@@H]3[C@H](O)CCN23)ccc(C#N)c1Cl [oxazolidin-2-imine, 6g]	8.43
Cc1c(N2/C(=N/C#N)N3CC[C@H](O)[C@H]3[C@@H]2C)ccc(C#N)c1Cl [cyanoguanidine, 15]	5.96

----------
Measured pKi, listed per entry.
system_tested: Androgen receptor (Homo sapiens, UniProt P10275)
Sequence (P10275 whole entry): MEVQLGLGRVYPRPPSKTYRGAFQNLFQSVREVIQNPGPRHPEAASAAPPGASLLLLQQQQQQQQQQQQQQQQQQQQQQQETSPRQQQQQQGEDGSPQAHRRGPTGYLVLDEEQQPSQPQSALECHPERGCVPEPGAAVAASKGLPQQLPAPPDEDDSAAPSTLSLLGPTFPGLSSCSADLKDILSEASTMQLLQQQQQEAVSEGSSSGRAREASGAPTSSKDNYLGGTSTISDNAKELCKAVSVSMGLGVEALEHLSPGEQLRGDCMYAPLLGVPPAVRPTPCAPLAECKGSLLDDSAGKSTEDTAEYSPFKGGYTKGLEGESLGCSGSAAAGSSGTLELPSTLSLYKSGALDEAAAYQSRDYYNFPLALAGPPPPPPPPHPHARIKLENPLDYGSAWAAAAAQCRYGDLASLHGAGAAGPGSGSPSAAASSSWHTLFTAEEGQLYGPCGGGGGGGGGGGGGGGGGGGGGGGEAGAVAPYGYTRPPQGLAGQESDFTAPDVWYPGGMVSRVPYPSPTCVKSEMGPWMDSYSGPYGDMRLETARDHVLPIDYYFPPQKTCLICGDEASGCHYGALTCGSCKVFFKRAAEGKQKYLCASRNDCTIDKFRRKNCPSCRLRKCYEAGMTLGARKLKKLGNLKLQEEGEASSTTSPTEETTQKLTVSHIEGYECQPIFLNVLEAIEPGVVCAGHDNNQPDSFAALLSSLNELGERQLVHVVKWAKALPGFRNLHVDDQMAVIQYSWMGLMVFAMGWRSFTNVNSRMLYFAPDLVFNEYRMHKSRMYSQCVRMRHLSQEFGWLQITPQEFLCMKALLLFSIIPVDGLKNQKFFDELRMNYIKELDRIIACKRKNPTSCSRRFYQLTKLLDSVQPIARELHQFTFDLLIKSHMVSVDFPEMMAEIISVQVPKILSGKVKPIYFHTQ
pKi: −log10 of the molar value.

chemical_smiles	pKi
Cc1c(/N=C2\O[C@H](C(C)C)[C@@H]3[C@H](O)CCN23)ccc(C#N)c1Cl	9.15
Cc1c(N2/C(=N/C#N)N3CC[C@H](O)[C@H]3[C@@H]2C)ccc(C#N)c1Cl	7.77
